- System: CCRIS mutagenicity, Ames/micronucleus/aberration tests
- METHOD_DESCRIPTION: CCRIS mutagenicity studies
- MEASUREMENT_PARAMETERS: Test System: AMES SALMONELLA TYPHIMURIUM; Strain/Indicator: TA102; Metabolic Activation: NONE; Method: PREINCUBATION
Activity calls are given as the source filed them. No rule for the calls is given here. Where a SMILES comes first, the peptide text is derived from it. [ ]: non-standard residue; d: D form. ξ: configuration not given here. Trp(1-OMe) = COn1cc(C[C@H](N)C(=O)O)c2ccccc21; Asu = N[C@@H](CCCCCC(=O)O)C(=O)O; Ile(3ξ) = CCC(C)[C@H](N)C(=O)O; dPip = O=C(O)[C@H]1CCCCN1
Would you mind answering with one of these outcomes? 1 = active, -1 = inactive

Solved cases (5 shown):
compound=C/C(C=O)=C\c1ccccc1 group=-1
compound=CC(C)[C@@H]1CC[C@@H](C)C[C@H]1O group=-1
compound=CCC(C)=O group=-1
compound=CCCCCC(=O)OCC group=-1
compound=O=C1C=C(Nc2ccccc2)C(=O)c2ccccc21 group=-1

Exercise: Just curious, what result did CCCCNCCCNCCCNC(=O)c1csc(-c2csc(CCNC(=O)C(NC(=O)C(C)C(O)C(C)NC(=O)C(NC(=O)c3nc(C(CC(N)=O)NCC(N)C(N)=O)nc(N)c3C)C(OC3OC(CO)C(O)C(O)C3OC3OC(CO)C(O)C(OC(N)=O)C3O)c3cnc[nH]3)C(C)O)n2)n1 (stereo unspecified) get here?
Solution: 1

Exercise: Just curious, what result did `CC(=O)Nc1ccc(S(=O)(=O)Cl)cc1` get here?
Solution: -1

Exercise: Just curious, what result did `CC(=O)CC(=O)Nc1ccc(C)cc1` get here?
Solution: -1

Exercise: Just curious, what result did `CN(C)c1ccccc1` get here?
Solution: -1

Exercise: Just curious, what result did CCC(C)[C@@H]1NC(=O)[C@H](Cc2cn(OC)c3ccccc23)NC(=O)[C@H](CCCCCC(=O)OC)NC(=O)[C@H]2CCCCN2C1=O (stereo partly specified) (cyclo([Asu](OMe)[Trp(1-OMe)][Ile(3ξ)][dPip])) get here?
Solution: -1
